- Tested on: Danio rerio embryo
- ASSAY_PROTOCOL: BMC10 any morphological effect or mortality at 120 hpf; higher = less toxic
Give BMC10 any morphological effect or mortality for every item shown.

// below: answered compounds
Cl.Cl.OCCOCCN1CCN(Cc2cccc(Oc3ccccc3)c2)CC1 = 36.5 µM
O=c1cc(-c2ccc(O)c(O)c2)oc2cc(O)cc(O)c12 = > 100 µM
O=C1/C(=C/c2ccc(O)c(O)c2)COc2cc(O)ccc21 = > 100 µM
O=C(O)C[C@@H]1C(=O)O[C@H]2[C@@H]3OC(=O)c4cc(O)c(O)c(O)c4-c4c(cc(O)c(O)c4O)C(=O)OC[C@H]2O[C@@H](OC(=O)c2cc(O)c(O)c(O)c2)[C@@H]3OC(=O)c2cc(O)c(O)c3c2[C@H]1[C@H](O)C(=O)O3 = > 100 µM
COc1cc2c(cc1OC)CN(CCc1ccc(NC(=O)c3cccc4c(=O)c5cccc(OC)c5[nH]c34)cc1)CC2 = > 100 µM

// for each compound in input: emit BMC10 any morphological effect or mortality
1. Cc1cc(O)c2c(c1)C(=O)c1cccc(O)c1C2=O
2. N#CC(=C(/N)Sc1ccccc1N)/C(C#N)=C(\N)Sc1ccccc1N

A)
1. > 100 µM
2. 4.02 µM
